Entries and their Euclidean distance values follow.
system: OVCAR4; test: Euclidean distance of Cell Painting phenotypic profile (signed KS, 77 features) to DMSO centroid (dimensionless distance); 5 or 10 uM (library dependent); higher = stronger phenotypic change vs DMSO (phenoactivity); conditions: 48 h
API note: the answer field is a bare number with no unit suffix.

Here are 2 compounds together with their reported answers.
{"columns": ["compound", "study.system", "Euclidean distance"],
 "data": [
  ["COc1c2occc2c(OC)c2c(=O)cc(C)oc12", "OVCAR4", 0.887],
  ["COc1ccc(C[C@@H]2c3cc(OC)c(OC)cc3CC[N@+]2(C)CCC(=O)OCCCCCOC(=O)CC[N@@+]2(C)CCc3cc(OC)c(OC)cc3[C@H]2Cc2ccc(OC)c(OC)c2)cc1OC [Cisatracurium Besylate]", "OVCAR4", 1.35]
]}

Now for another entry.
Kindly note the recorded Euclidean distance for "Cc1c(-c2cnccn2)ssc1=S" , which is 1.3

* * *

system: OVCAR4; assay: Euclidean distance of Cell Painting phenotypic profile (signed KS, 77 features) to DMSO centroid (dimensionless distance); 5 or 10 uM (library dependent); higher = stronger phenotypic change vs DMSO (phenoactivity); conditions: 48 h
Where a name gives a salt, the structure may show the parent alone.
assay.endpoint: Euclidean distance

# example entries with known answers
{"columns": ["compound", "study.system", "assay.endpoint", "value.measured"],
 "data": [
  ["CCCN(CCC)S(=O)(=O)c1ccc(C(=O)O)cc1", "OVCAR4", "Euclidean distance", 1.69],
  ["Nc1ccn([C@H]2CC[C@@H](CO)O2)c(=O)n1", "OVCAR4", "Euclidean distance", 1.13],
  ["C[C@]1(Cn2ccnn2)[C@H](C(=O)O)N2C(=O)C[C@H]2S1(=O)=O", "OVCAR4", "Euclidean distance", 0.673]
]}

The compound identified as "CC1(C)S[C@@H]2[C@H](NC(=O)Cc3ccccc3)C(=O)N2[C@H]1C(=O)O" registered its Euclidean distance at 1.48

Record summary for "Nc1ncn([C@H]2C[C@H](O)[C@@H](CO)O2)c(=O)n1" : reported Euclidean distance = 1.55

Recorded result, COc1cc(/C=C/C(=O)O)ccc1O [Sodium ferulate] , Euclidean distance: 1.46

"COc1ccc2cccc(CCNC(C)=O)c2c1" yielded Euclidean distance of 0.58

Measured Euclidean distance, "CC[C@@]1(O)C(=O)OCc2c1cc1n(c2=O)Cc2cc3c(CN(C)C)c(O)ccc3nc2-1" : 2.85

Cc1nc(C)c(C)nc1C [Ligustrazine hydrochloride] has a reported Euclidean distance of 0.693

Reported Euclidean distance ( "C=CC(=O)N1CC[C@H](n2nc(C#Cc3cc(OC)cc(OC)c3)c3c(N)ncnc32)C1" ) = 1.58

# Euclidean distance (compound: "COc1cc(NC(=O)c2ccc(-c3ccc(Cl)cc3)o2)cc(OC)c1" ) is 1.48

GET /value?item= CC(=O)c1ccc(S(=O)(=O)NC(=O)NC2CCCCC2)cc1 [Acetohexamide] &field=Euclidean distance returns 0.995

Euclidean distance reported for this compound Oc1ccc([C@H]2COc3cc(O)ccc3C2)cc1 [Equol] : 1.72

For reference, reported Euclidean distance for "CCN1CCN(c2ccc(Nc3cc(N(C)C(=O)Nc4c(Cl)c(OC)cc(OC)c4Cl)ncn3)cc2)CC1" stands at 4.1

Euclidean distance reported for this compound "Cc1ccc(CNc2ncnc3ccc(-c4ccc(CO)o4)cc23)o1" : 1.67

Measured Euclidean distance, CC(=O)NO [Acetohydroxamic acid] : 0.776

Quick note, Euclidean distance for "CC(C)(C)c1[nH]cnc1/C=c1\[nH]c(=O)/c(=C/c2ccccc2)[nH]c1=O" landed at 2.86

Entry CCCN1CCCC[C@H]1C(=O)Nc1c(C)cccc1C [Ropivacaine] — recorded Euclidean distance = 1.31

// Euclidean distance lookup, compound = "COc1cc(Nc2nc3ccccc3nc2NS(=O)(=O)c2ccc(NC(=O)c3ccc(C)c(OC)c3)cc2)cc(OC)c1" , result: 1.07
